test system: A-427; experiment: relative viability (nuclei count vs DMSO), 5 days (fraction); higher = more cells survive; conditions: first compound 0.4 µM
Threshold check on relative viability: strictly below 1 is true; on or above 1 is false.

{"Molecule": "O=C(O)c1ccc(-c2c[nH]c3ncc(-c4ccccc4)cc23)cc1C1CCCC1 + Cc1nc(NC(=O)N2CCC[C@H]2C(N)=O)sc1-c1ccnc(C(C)(C)C(F)(F)F)c1 [Alpelisib] (partner 2 µM)", "Qualitative label": "false"}
{"Molecule": "O=C(O)c1ccc(-c2c[nH]c3ncc(-c4ccccc4)cc23)cc1C1CCCC1 + Cc1cc(Nc2cc(N3CCN(C)CC3)nc(Sc3ccc(NC(=O)C4CC4)cc3)n2)n[nH]1 [Tozasertib] (partner 0.1 µM)", "Qualitative label": "true"}
{"Molecule": "O=C(O)c1ccc(-c2c[nH]c3ncc(-c4ccccc4)cc23)cc1C1CCCC1 + N=C(N)NC(=N)NCCc1ccccc1 [Phenformin] (partner 250 µM)", "Qualitative label": "true"}
{"Molecule": "O=C(O)c1ccc(-c2c[nH]c3ncc(-c4ccccc4)cc23)cc1C1CCCC1 + CC1(C)CCC(c2ccc(Cl)cc2)=C(CN2CCN(c3ccc(C(=O)NS(=O)(=O)c4ccc(N[C@H](CCN5CCOCC5)CSc5ccccc5)c(S(=O)(=O)C(F)(F)F)c4)cc3)CC2)C1 [Navitoclax] (partner 0.5 µM)", "Qualitative label": "true"}
{"Molecule": "O=C(O)c1ccc(-c2c[nH]c3ncc(-c4ccccc4)cc23)cc1C1CCCC1 + C[C@]1(O)C[C@@H](c2nc(-c3ccc4ccc(-c5ccccc5)nc4c3)c3c(N)nccn32)C1 [Linsitinib] (partner 1 µM)", "Qualitative label": "false"}

// data source = the supplement of paper PMC10307832
